Entry source: ChEMBL document CHEMBL1151796

Would you kindly list Cytotoxicity for each of these compounds?
# Tested on: PANC-1
# Experimental protocol: Cytotoxicity against human PANC1 cells in nutrient-deprived condition
# Assay type: functional
Number only, in µM; omit the unit.

Problem: Any idea what its Cytotoxicity is? The compound is CCCC(=O)c1c(O)c(CC=C(C)C)c2oc(=O)cc3c2c1OC(C)C3 (stereo not drawn) [KAYEASSAMIN H]
Result: 64

Problem: Which Cytotoxicity reading was recorded for the compound `CCCC(=O)c1c(O)c(CC=C(C)C)c(O)c2c(-c3ccccc3)cc(=O)oc12` ?
Result: 8

Problem: Quick one: Cytotoxicity for CCCC(=O)c1c2c(c3oc(=O)cc(CCC)c3c1O)CC(C(C)(C)O)O2 (stereo not drawn) ?
Result: 64

Problem: Need Cytotoxicity of CCCC(=O)c1c(O)c2c(c3c([C@@H](O)CC)cc(=O)oc13)OC(C)(CCC=C(C)C)C=C2 (stereo partly drawn) [KAYEASSAMIN I] , thanks.
Result: 64

Problem: Please look up its Cytotoxicity: CC[C@H](O)c1cc(=O)oc2c(CC=C(C)C)c(O)c(C(=O)CC(C)C)c(O)c12 [KAYEASSAMIN G]
Result: 1

Problem: Could you share which Cytotoxicity value was measured for CCC(C)C(=O)c1c(O)c(C/C=C(\C)CCC=C(C)C)c2oc(=O)cc([C@@H](O)CC)c2c1O (stereo partly drawn) [KAYEASSAMIN C] ?
Result: 4

Problem: So what's the measured Cytotoxicity for this one? CCCC(=O)c1c(O)c(CC=C(C)C)c2oc(=O)cc(-c3ccccc3)c2c1O [MAMMEA A/AC]
Result: 16

Problem: Given CCCC(=O)c1c(O)c(C/C=C(\C)CCC=C(C)C)c2oc(=O)cc([C@@H](O)CC)c2c1O [KAYEASSAMIN B] , state its recorded Cytotoxicity.
Result: 1

Problem: Reported Cytotoxicity, compound CCCC(=O)c1c(O)c(C/C=C(\C)CCC=C(C)C)c(O)c2c([C@@H](O)CC)cc(=O)oc12 [KAYEASSAMIN A] : ____
Result: 1

Problem: For CC[C@H](O)c1cc(=O)oc2c(C/C=C(\C)CCC=C(C)C)c(O)c(C(=O)CC(C)C)c(O)c12 [KAYEASSAMIN D] , what is its reported Cytotoxicity?
Result: 1

Problem: Would you kindly share the measured Cytotoxicity for `CCCC(=O)c1c(O)c(CC=C(C)C)c2oc(=O)cc(CCC)c2c1O` ?
Result: 2

Problem: GET /values?readout=Cytotoxicity&item= CC(C)CC(=O)c1c2c(c3oc(=O)cc(-c4ccccc4)c3c1O)C=CC(C)(C)O2 [MAMMEIGIN]
Result: 32
